System: Plasmodium falciparum
experimentalProtocol: Antimicrobial activity against Plasmodium falciparum IMT 31 harboring Pfcrt, Pfmdr1, Pfmrp, and Pfnhe-1 polymorphisms assessed as growth inhibition after 48 hrs by scintillation counting
Format: functional, organism-based
experimentalContext: IMT 31, 48 h

| molecule | IC50 / µM |
| --- | --- |
| C=C[C@H]1CN2CC[C@H]1C[C@H]2[C@H](O)c1ccnc2ccc(OC)cc12 [QUININE] | 0.371 |
